Where do these numbers come from? They come from patent US20260354380A1.

Test system: Heliothis virescens
Protocol description: Action on Tobacco Budworm (Heliothis virescens)
Format: in vivo
Test conditions: 800 ppm; egg and larval mortality; 5 days
Observable: mortality in comparison with untreated controls

{"Entry smiles": "Cc1ccc(C(C)C)c(N2C(=O)CS/C2=N\\C(=O)Nc2ccc(-n3nc(C)c(NC(=O)c4ccc(OC(F)(F)F)cc4)c3N)cc2)c1", "Result": "at least 75%"}
{"Entry smiles": "Cc1ccc(C(C)C)c(N2C(=O)CS/C2=N\\C(=O)Nc2ccc(-n3cc(NC(=O)c4cccs4)c(C)n3)cc2)c1", "Result": "at least 75%"}
{"Entry smiles": "Cc1ccc(C(C)C)c(N2C(=O)CS/C2=N\\C(=O)Nc2ccc(-n3cc(NC(=O)c4ccc(Cl)c(Cl)c4)c(C)n3)cc2)c1", "Result": "at least 75%"}
